As shown below, each of these compounds has a reported Binding to bone (%) Fluorescence value.
EXPERIMENTAL_PROTOCOL: Bone powder binding, fluorometric detection
EXPERIMENTAL_CONTEXT: 1 mg/ml compound, bone meal powder 10 mg/ml in PBS, 37° C., 1 h
READOUT_KIND: Binding to bone (%) Fluorescence

COMPOUND	READOUT_KIND	VALUE_OBSERVED
COc1c(N2CCNC(C)C2)c(F)cc2c(=O)c(C(=O)OCC(=O)NCCCC[C@@H](NC(=O)COC(=O)c3cn(C4CC4)c4c(OC)c(N5CCNC(C)C5)c(F)cc4c3=O)C(=O)NC(P(=O)(O)O)P(=O)(O)O)cn(C3CC3)c12 (stereo partly drawn)	Binding to bone (%) Fluorescence	92.8%
COc1c(N2C[C@@H]3CCCN[C@@H]3C2)c(F)cc2c(=O)c(C(=O)OCC(=O)Nc3ccc(C(P(=O)(O)O)P(=O)(O)O)cc3)cn(C3CC3)c12	Binding to bone (%) Fluorescence	99.0%
COc1c(N2CCN(C(=O)OC(C)OC(=O)CCCC(=O)NC(P(=O)(O)O)P(=O)(O)O)C(C)C2)c(F)cc2c(=O)c(C(=O)O)cn(C3CC3)c12 (stereo not drawn)	Binding to bone (%) Fluorescence	94.3%
